Kindly supply the reported pIC50 values for the records listed here.
# assay_comment: Antagonist activity against 1-alpha,25-dihydroxy vitamin D3-induced HL60 cell differentiation by NBT reduction method
Reminder that pIC50 means the negative base-10 logarithm of the concentration expressed in mol/L.

# pIC50 of C=C1/C(=C\C=C2/CCC[C@]3(C)[C@@H]([C@H](C)C[C@H]4OC(=O)C(=C)[C@@H]4CCCC)CC[C@@H]23)C[C@@H](O)[C@H](OCCCO)[C@@H]1O = 8.06

pIC50 recorded for this molecule, C=C1/C(=C\C=C2/CCC[C@]3(C)[C@@H]([C@H](C)C[C@@H]4OC(=O)C(=C)[C@H]4CCC)CC[C@@H]23)C[C@@H](O)[C@H](CCCO)[C@@H]1O , is 8.20

pIC50 recorded for this molecule, C=C1C(=O)O[C@@H](C[C@@H](C)[C@H]2CC[C@H]3/C(=C/C=C4/C[C@@H](O)[C@H](OCCCO)[C@H](O)C4=C)CCC[C@]23C)[C@@H]1C , is 8.21

Form: molecule = C=C1/C(=C\C=C2/CCC[C@]3(C)[C@@H]([C@H](C)C[C@@H]4OC(=O)C(=C)[C@H]4CC(C)C)CC[C@@H]23)C[C@@H](O)[C@H](CCCO)[C@@H]1O ; pIC50 = 8.03

Measured pIC50, C=C1/C(=C\C=C2/CCC[C@]3(C)[C@@H]([C@H](C)C[C@@H]4OC(=O)C(=C)[C@H]4CCCC)CC[C@@H]23)C[C@@H](O)[C@H](OCCCO)[C@@H]1O : 8.06
